- Tested on: HOXA9 DNA binding site
- PROTOCOL_DESCRIPTION: Inhibition of HOXA9 (unknown origin) expressed in reticulocyte lysate system binding to 32P-radiolabeled DNA Hoxa9-binding site (strand a-CTGCGATGATTTACGACCGC /strand b-GCGGTCGTAAATCATCGCAG) (unknown origin) assessed as HOXA9/DNA inhibition at 2.5 to 20 uM incubated for 20 mins by electrophoretic mobility shift assay relative to control
- Format: subcellular
- EXPERIMENTAL_PARAMETERS: dose 2.5-20 µM
Activity calls are given as the source filed them. The rule behind the calls is not given here.
MEASURED_PROPERTY: inhibition

N=C(N)c1ccc(-c2ccc(-c3nc4cc(C(=N)N)ccc4[nH]3)o2)cc1 | inactive
Cn1c(-c2ccc(-c3ccc(C(=N)N)cc3)s2)nc2cc(C(=N)N)ccc21 | inactive
